B1: PRKX (parent)
chain: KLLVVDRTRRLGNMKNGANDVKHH

# Variants of: B1
# test-summary: protein stability index of a GFP-peptide fusion (GPS, HEK-293T) (PSI 1-6); higher = more stable;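 note: lentivirally expressed fusions sorted by FACS into six bins by GFP to DsRed ratio, PSI derived from sequencing read proportions per bin multiplied by bin number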
# settings: c terminus: a fixed tail appended
protein stability index by entry:
Number only, no unit.

A selection of reference data follows.
> print(dat)
                  sequence.content  test.value
1   KLLVVHRTRRLGNMKNGANDVKHH [D6H]        2.82
2   KLPVVDRTRRLGNMKNGANDVKHH [L3P]        3.72
3  KLLVVDRTRRYGNMKNGANDVKHH [L11Y]         3.1

-- ask Quick one: protein stability index of KLLVVDRTRRLGNMKNGANDSKHH [V21S] ?
-- reply 3.2

-- ask Quick one: protein stability index of KLLVVDRTRRLGNMKNGENDVKHH [A18E] ?
-- reply 3.67
